experiment: Cytotoxicity against BALB/c mouse peritoneal macrophages after 48 hrs by MTT assay; format: cell-based; conditions: peritoneal macrophage cell
Measurement Name: CC50

Q: Which CC50 value belongs to C=CCc1ccc(Oc2cc([C@H](O)C=C)cc(OC)c2O)c(OC)c1 ?
Ans: > 292 µM

----------
experiment: Cytotoxicity against BALB/c mouse peritoneal macrophages after 48 hrs by MTT assay; assay type: cell-based; details: peritoneal macrophage cell
Measurement Name: CC50 (µM)
Respond with the bare value in µM.

Q: Param item = SODIUM ANTIMONY GLUCONATE ; retrieve measured CC50.
Ans: 53.4

----------
test system: Leishmania donovani; assay: Antileishmanial activity against DsRed2 expressing Leishmania donovani promastigote assessed as parasite death after 48 hrs by flow cytometry; assay type: functional, organism-based; conditions: read-out: IC50
Measurement Name: pIC50
Answer as the number alone; pIC50 is minus log10 of concentration in mol/L.

Q: Form field: pIC50 recorded for SODIUM ANTIMONY GLUCONATE with Leishmania donovani (enter value)
Ans: 3.51
